- study_target: CDK2/Cyclin E1 (Homo sapiens)
- Construct: purchased Eurofins 14-475
- protocol_summary: CDK2/Cyclin E1 Caliper LabChip EZ Reader mobility shift assay
- Type: biochemical
- measurement_setup: 2.5 nM CDK2/Cyclin E1, 100 μM ATP, 1.5 μM fluorescent peptide, 30 min preincubation; read-out: Caliper Assay (CDK2/CCNE1): IC50

molecule: C[C@@H](OCC1CCCCC1)[C@H](NC(=O)[C@H]1CCOC12CN(C(=O)[C@H]1CC1(C)C)C2)C(=O)N1CCCCC1 (single isomer, unassigned)
IC50: > 10 µM

molecule: C[C@@H](OCC1CCCCC1)[C@H](NC(=O)[C@@H]1CN(C(=O)OC(C)(C)C)CC12CN(C(=O)[C@H]1CC1(C)C)C2)C(=O)N1CCOCC1
IC50: 1 to 10 µM

molecule: C[C@@H](OCC1CCCCC1)[C@H](NC(=O)[C@@H]1CNCC12CN(C(=O)[C@H]1CC1(C)C)C2)C(=O)N1CCCCC1
IC50: > 10 µM

molecule: O=C(c1cncs1)N1CC(c2nnc(C(F)(F)c3ccc(Cl)c(Cl)c3)o2)C2(CCC2)C1 (stereo not shown)
IC50: > 10 µM

molecule: O=C(c1cncs1)N1CC(c2nnc(C(F)(F)c3ccc(Cl)c(Cl)c3)o2)C2(CCS(=O)(=O)CC2)C1 (stereo not shown)
IC50: > 10 µM

molecule: CCOC(=O)[C@@H]1CN(C(C)=O)CC12CN(C(C)=O)C2
IC50: > 10 µM

molecule: CNC(=O)[C@@H](NC(=O)[C@H]1CCOC12CN(C(=O)[C@H]1CC1(C)C)C2)[C@@H](C)OCC1CCCCC1 (single isomer, unassigned)
IC50: > 10 µM

molecule: CC(=O)N1C[C@@H](C(N)=O)C2(C1)CN(C(C)=O)C2
IC50: > 10 µM

molecule: COC[C@H]1CCCN(C(=O)[C@@H](NC(=O)[C@H]2CN(C(=O)c3cncs3)CC23CN(C(=O)[C@H]2CC2(C)C)C3)[C@@H](C)OCC2CCCCC2)C1
IC50: 0.1 to 1 µM

molecule: CC1(C)C[C@@H]1C(=O)N1CC2(CN(C(=O)c3cncs3)CC2C#N)C1 (stereo partly shown)
IC50: > 10 µM

molecule: CC(C)(C)OC(=O)N1CCC2(CC1)CN(C(=O)c1cncs1)CC2c1nnc(C(F)(F)c2ccc(Cl)c(Cl)c2)o1 (stereo not shown)
IC50: > 10 µM

molecule: CC1(C)C[C@@H]1C(=O)N1CCC2(CC1)CN(C(=O)c1cncs1)CC2c1nnc(C(F)(F)c2ccc(Cl)c(Cl)c2)o1 (stereo partly shown)
IC50: > 10 µM

molecule: C[C@@H](OCC1CCCCC1)[C@H](NC(=O)[C@H]1CCOC12CN(C(=O)[C@H]1CC1(C)C)C2)C(=O)N1CCC[C@H](N)C1 (single isomer, unassigned)
IC50: > 10 µM
